Biological target: Alpha-1A adrenergic receptor (Homo sapiens)
Sequence (P35348 whole entry): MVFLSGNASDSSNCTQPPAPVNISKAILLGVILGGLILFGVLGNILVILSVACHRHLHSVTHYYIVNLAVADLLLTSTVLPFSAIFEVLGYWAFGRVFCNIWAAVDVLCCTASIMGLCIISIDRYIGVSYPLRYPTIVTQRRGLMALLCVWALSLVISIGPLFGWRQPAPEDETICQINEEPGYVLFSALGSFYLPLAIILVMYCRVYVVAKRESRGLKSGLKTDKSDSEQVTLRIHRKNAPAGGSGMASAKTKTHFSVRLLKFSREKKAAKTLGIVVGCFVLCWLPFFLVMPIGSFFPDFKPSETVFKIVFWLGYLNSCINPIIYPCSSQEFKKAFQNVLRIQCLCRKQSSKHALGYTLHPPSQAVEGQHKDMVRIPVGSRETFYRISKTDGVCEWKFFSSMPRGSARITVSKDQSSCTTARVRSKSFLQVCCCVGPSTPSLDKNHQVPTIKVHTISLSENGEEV
MEASUREMENT_NAME: IC50

Q: Give reported IC50 value for CS(=O)(=O)c1ccc(-c2cnc(NCc3ccco3)n3cnnc23)cc1 [EED226]
Result: > 30 µM

----------
Molecular target: Gamma-aminobutyric acid receptor subunit alpha-1 (Homo sapiens)
Sequence (P14867 whole entry): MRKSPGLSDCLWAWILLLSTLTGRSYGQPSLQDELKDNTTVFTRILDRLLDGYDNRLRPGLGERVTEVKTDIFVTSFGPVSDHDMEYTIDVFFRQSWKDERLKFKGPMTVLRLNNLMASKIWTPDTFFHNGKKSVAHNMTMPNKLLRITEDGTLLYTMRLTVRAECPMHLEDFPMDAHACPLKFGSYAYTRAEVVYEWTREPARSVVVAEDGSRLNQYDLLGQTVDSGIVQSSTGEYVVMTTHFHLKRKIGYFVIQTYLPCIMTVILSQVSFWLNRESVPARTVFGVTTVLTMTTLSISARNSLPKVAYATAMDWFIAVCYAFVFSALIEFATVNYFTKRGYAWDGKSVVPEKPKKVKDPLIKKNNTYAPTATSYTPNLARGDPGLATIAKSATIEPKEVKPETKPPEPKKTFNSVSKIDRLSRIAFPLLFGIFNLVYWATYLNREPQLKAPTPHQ
Assay: HMT Assay
MEASUREMENT_NAME: IC50

Q: Give reported IC50 value for "CS(=O)(=O)c1ccc(-c2cnc(NCc3ccco3)n3cnnc23)cc1"
Result: > 30 µM

----------
Target: Histone-lysine N-methyltransferase, H3 lysine-79 specific (Homo sapiens)
Sequence (Q8TEK3 whole entry): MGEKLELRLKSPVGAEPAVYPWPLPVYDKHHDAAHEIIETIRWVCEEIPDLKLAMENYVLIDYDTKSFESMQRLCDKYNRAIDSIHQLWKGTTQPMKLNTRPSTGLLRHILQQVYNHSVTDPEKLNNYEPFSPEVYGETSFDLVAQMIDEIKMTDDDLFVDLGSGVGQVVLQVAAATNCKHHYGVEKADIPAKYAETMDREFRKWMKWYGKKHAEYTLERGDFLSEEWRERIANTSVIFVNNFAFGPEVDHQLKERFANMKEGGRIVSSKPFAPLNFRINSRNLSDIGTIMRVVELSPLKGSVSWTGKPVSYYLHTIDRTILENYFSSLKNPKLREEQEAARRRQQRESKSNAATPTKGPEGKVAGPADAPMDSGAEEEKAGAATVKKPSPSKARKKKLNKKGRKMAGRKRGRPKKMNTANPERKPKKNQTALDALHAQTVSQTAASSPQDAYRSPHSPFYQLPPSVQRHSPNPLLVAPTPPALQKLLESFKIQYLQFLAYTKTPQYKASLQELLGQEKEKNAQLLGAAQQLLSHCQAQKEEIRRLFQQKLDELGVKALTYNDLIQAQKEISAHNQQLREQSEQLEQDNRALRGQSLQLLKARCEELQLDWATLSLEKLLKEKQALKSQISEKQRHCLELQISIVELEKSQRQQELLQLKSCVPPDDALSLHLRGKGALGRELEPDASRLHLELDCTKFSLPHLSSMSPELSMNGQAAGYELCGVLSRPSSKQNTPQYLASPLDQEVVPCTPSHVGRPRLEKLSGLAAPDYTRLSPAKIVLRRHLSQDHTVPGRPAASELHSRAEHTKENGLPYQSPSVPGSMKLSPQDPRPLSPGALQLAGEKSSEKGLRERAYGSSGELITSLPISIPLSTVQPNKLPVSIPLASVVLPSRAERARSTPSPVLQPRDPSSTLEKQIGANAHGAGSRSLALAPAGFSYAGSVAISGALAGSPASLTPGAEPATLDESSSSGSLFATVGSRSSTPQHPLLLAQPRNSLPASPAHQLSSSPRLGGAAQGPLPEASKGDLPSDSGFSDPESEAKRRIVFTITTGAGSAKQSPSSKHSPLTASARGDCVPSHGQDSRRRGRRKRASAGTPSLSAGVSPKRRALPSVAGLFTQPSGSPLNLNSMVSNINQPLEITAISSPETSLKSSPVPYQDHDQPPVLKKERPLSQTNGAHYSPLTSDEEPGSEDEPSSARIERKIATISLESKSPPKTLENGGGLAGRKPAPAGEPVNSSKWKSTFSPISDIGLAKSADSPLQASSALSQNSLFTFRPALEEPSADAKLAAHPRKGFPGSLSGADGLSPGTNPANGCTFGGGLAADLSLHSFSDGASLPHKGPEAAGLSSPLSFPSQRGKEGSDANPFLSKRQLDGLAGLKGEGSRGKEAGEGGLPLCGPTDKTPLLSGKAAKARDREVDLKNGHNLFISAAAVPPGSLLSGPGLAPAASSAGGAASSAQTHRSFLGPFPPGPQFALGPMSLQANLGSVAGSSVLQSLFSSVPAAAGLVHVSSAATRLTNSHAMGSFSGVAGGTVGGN
Assay: HMT Assay
Experimental: All HMT reactions were performed as described previously [Nasveschuk et al., ACS Med. Chem. Lett., 5:378-383].
MEASUREMENT_NAME: IC50

Q: Give reported IC50 value for "CS(=O)(=O)c1ccc(-c2cnc(NCc3ccco3)n3cnnc23)cc1"
Result: > 100 µM

----------
pIC50: −log10 of the molar value.
MEASUREMENT_NAME: pIC50

Q: Fill: pIC50 (Protein arginine N-methyltransferase 1 [11-371] (Homo sapiens)) for this molecule "CS(=O)(=O)c1ccc(-c2cnc(NCc3ccco3)n3cnnc23)cc1"
Result: < 4.00

----------
Target: UniProt Q96KQ7
Sequence (Q96KQ7 whole entry): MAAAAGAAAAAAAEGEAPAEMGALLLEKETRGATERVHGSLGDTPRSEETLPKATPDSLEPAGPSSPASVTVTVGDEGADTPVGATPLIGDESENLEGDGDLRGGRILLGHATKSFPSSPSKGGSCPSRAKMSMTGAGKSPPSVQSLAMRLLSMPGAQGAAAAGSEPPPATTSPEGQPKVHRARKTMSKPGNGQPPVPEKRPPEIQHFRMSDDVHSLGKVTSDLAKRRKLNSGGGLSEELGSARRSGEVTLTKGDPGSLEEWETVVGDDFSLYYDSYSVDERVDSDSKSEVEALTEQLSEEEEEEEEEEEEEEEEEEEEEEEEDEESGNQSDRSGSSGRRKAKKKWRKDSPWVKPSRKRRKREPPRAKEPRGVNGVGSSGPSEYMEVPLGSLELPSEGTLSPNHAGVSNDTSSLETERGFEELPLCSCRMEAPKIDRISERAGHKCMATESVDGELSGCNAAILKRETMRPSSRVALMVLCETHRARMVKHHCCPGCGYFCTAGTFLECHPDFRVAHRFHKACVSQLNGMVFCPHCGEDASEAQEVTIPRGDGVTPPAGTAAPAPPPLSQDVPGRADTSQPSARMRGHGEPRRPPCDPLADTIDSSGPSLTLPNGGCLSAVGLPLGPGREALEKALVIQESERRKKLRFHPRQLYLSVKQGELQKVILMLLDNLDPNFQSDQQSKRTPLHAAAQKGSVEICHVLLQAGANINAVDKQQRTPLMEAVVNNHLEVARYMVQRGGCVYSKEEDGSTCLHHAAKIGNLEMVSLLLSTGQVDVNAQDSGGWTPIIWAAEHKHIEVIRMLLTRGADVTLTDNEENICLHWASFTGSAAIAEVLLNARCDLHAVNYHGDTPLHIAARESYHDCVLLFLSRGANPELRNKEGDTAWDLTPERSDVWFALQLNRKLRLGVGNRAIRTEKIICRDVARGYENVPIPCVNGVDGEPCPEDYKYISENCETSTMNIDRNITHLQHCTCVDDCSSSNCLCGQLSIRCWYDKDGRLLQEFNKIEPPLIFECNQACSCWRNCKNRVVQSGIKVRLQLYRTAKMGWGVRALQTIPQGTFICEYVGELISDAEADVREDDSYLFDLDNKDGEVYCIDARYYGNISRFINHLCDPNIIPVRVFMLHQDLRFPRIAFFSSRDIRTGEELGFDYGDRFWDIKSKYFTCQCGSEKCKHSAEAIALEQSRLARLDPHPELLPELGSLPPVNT
MEASUREMENT_NAME: IC50

Q: Give reported IC50 value for CS(=O)(=O)c1ccc(-c2cnc(NCc3ccco3)n3cnnc23)cc1 [EED226]
Result: > 100 µM

----------
Target: Mitogen-activated protein kinase kinase kinase 8 [30-404] (Human)
Construct: 30-404
Sequence (P41279 30-404): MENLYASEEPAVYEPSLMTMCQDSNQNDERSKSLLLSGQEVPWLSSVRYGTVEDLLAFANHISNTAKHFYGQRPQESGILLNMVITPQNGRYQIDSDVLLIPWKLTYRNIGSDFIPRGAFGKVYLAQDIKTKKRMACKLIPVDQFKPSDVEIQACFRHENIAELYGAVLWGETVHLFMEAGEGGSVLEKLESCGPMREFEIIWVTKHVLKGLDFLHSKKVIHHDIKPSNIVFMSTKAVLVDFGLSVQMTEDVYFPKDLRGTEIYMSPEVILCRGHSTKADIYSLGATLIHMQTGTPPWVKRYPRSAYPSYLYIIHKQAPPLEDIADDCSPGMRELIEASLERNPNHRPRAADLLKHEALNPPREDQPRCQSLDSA
Assay: HMT Assay
pIC50: −log10 of the molar value.
MEASUREMENT_NAME: pIC50

Q: Give reported pIC50 value for CS(=O)(=O)c1ccc(-c2cnc(NCc3ccco3)n3cnnc23)cc1 [EED226]
Result: < 5.00

----------
Target: D(1A) dopamine receptor (Homo sapiens, UniProt P21728)
Sequence (P21728 whole entry): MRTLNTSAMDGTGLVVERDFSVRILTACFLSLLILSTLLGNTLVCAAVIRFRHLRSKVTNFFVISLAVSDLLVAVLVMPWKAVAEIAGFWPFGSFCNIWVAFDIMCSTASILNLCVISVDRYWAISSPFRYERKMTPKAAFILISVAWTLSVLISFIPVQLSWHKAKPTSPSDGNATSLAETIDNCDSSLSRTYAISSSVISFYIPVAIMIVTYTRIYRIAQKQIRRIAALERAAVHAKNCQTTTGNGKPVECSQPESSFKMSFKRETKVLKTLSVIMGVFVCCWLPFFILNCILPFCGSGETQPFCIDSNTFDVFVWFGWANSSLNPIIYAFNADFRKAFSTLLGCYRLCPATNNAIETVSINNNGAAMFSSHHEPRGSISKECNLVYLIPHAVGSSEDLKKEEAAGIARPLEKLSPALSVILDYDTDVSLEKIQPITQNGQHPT
Assay: HMT Assay
MEASUREMENT_NAME: IC50

Q: Give reported IC50 value for "CS(=O)(=O)c1ccc(-c2cnc(NCc3ccco3)n3cnnc23)cc1"
Result: > 30 µM

Source listed as BindingDB's records for doi:10.1038/nchembio.2304.
